Origin of values: BindingDB's records for doi:10.1124/jpet.300.3.1122

Target protein (sequence): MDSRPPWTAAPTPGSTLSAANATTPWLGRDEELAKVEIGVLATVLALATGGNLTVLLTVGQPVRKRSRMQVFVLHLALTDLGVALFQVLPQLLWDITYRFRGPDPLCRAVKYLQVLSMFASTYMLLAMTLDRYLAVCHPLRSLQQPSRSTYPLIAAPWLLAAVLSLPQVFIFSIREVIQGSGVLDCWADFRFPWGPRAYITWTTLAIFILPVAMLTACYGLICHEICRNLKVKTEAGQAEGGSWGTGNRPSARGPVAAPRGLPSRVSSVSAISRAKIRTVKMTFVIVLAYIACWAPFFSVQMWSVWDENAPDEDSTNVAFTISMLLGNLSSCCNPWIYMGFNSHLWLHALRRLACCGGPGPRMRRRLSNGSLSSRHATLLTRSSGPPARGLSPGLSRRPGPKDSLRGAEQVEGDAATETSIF
observation.type: pKi
Here pKi is given on a logarithmic scale as minus log10 of the concentration in mol/L.

Query (compound): COc1ccc(S(=O)(=O)N2C(=O)[C@@](c3ccccc3OC)(N3C[C@H](O)C[C@H]3C(=O)N(C)C)c3cc(Cl)ccc32)c(OC)c1 ; field requested: pKi
8.57

----------
target: Vasopressin V1a receptor (Rattus norvegicus, UniProt P30560)
Sequence (P30560 whole entry): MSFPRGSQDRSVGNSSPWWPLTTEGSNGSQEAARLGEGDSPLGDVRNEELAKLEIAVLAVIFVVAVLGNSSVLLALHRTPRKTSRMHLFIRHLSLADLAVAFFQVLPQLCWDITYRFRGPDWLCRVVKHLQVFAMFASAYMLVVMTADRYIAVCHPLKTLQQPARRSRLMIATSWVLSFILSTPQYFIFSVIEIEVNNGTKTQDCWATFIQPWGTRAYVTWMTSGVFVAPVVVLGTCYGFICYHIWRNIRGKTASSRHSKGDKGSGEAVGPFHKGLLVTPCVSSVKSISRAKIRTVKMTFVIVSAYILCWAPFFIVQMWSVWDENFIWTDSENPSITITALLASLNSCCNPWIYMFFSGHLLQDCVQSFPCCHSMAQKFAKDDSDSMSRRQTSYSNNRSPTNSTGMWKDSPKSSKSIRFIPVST
observation.type: Ki (µM)
// note: answer is a bare numeric in µM

Give Ki (Vasopressin V1a receptor (Rattus norvegicus, UniProt P30560)) of the following molecule: COc1ccc(S(=O)(=O)N2C(=O)[C@@](c3ccccc3OC)(N3C[C@H](O)C[C@H]3C(=O)N(C)C)c3cc(Cl)ccc32)c(OC)c1 [SSR149415]
1.05
